Target desc: HIV-1 RT Y181C (Human immunodeficiency virus type 1 group M subtype B, UniProt P03367, Y780C)
Construct: Utilization of mutant RT eraymes (Y181C and Y181L, prepared by site-directed mutagenesis); made in house
Run description: Reverse Transcriptase (RT) Assay, Y181C mutant enzyme
Type: biochemical, Human Immunodeficiency Virus (HIV-1)
Recorded conditions: 1 µM compound, read-out: Reverse Transciptase Assay % inhibition (1 µM) Y181C
Each entry below carries its recorded inhibition at 1 µM.
Property measured: inhibition at 1 µM (%)

- CCN1c2ncccc2C(=O)N(C)c2ccc(-c3cc[nH]c3C(C)=O)nc21: 59
- CCN1c2ncccc2C(=O)N(C)c2ccc(-c3cnn(C)c3)nc21: 36
- CCN1c2ncccc2C(=O)N(C)c2ccc(-c3cc4cc(OC)ccc4[nH]3)nc21: 45
- CCN1c2ncccc2C(=O)N(C)c2ccc(-c3ccc[nH]3)nc21: 80
- CCN1C(=O)c2cccnc2N(C)c2nc(-c3ccc[nH]3)ccc21: 37
- CCN1c2ncccc2C(=O)N(C)c2ccc(-c3cc[nH]c3C#N)nc21: 82
- CCN1c2ncccc2C(=O)N(C)c2ccc(-c3c[nH]nc3C)nc21: 73
- CCCN1c2ncccc2C(=O)N(C)c2ccc(-c3cn[nH]c3)nc21: 90
- CCN1c2ncccc2C(=O)N(C)c2ccc(-c3cc[nH]c3)nc21: 91
- CCN1c2ncccc2C(=O)N(C)c2ccc(-c3cnn(CC)c3)nc21: 72
- CCN1c2ncccc2C(=O)N(C)c2ccc(-c3cccn3C(C)=O)nc21: 51
- CCN1c2ncccc2C(=O)N(C)c2ccc(-c3c[nH]c(C(C)=O)c3)nc21: 62
- CN1C(=O)c2cccnc2N(C2CC2)c2nc(-c3cc[nH]c3)ccc21: 86
- CCN1c2ncccc2C(=O)N(C)c2ccc(-c3c[nH]c(C(N)=O)c3)nc21: 72
- CCN1c2ncccc2C(=O)N(C)c2ccc(-c3c[nH]c4ccccc34)nc21: 93
- CN1C(=O)c2cccnc2N(C2CC2)c2nc(-c3cn[nH]c3)ccc21: 87
